- Test: Stability towards deiodination and tissue incorporation after intravenous administration to rabbits
- Format: in vivo, New Zealand white rabbits
- Condition label: thyroid, rabbit, 72 hours, indicates stability towards deiodination, read-out: radioactivity in thyroid
Value kind: tissue uptake at 72 h

Field tissue uptake at 72 h (entry NCCCCCNS(=O)(=O)c1cccc2c([125I])cccc12 ) reads ~0.05 %ID/g

Recorded values, source patent US4406875A.
